# System: Plasmodium falciparum
# assay.protocol: Antiplasmodial activity against chloroquine-resistant Plasmodium falciparum W2 after 48 hrs by YOYO-1 dye-based flow cytometry
# Assay type: functional, organism-based
# conditions.used: W2, 48 h
reported.metric: IC50

Query: Record COc1cc(/C=C/C(=O)c2ccc(OCc3cn(CCNc4ccnc5cc(Cl)ccc45)nn3)cc2)cc(OC)c1OC : what is its IC50 with Plasmodium falciparum?
Response: 175 nM

Query: Record COc1ccc(C2CC(c3ccc(OCc4cn(CCCNc5ccnc6cc(Cl)ccc56)nn4)cc3)=NN2C(C)=O)cc1OC (stereo not drawn) : what is its IC50 with Plasmodium falciparum?
Response: 504 nM

Query: Record COc1ccc(C2CC(c3ccc(OCc4cn(CCNc5ccnc6cc(Cl)ccc56)nn4)cc3)=NN2C(C)=O)cc1OC (stereo not drawn) : what is its IC50 with Plasmodium falciparum?
Response: 152 nM

Query: Record COc1ccc(C2CC(c3ccc(OCc4cn(CCCNc5ccnc6cc(Cl)ccc56)nn4)c(OC)c3)=NN2C(C)=O)cc1 (stereo not drawn) : what is its IC50 with Plasmodium falciparum?
Response: 1570 nM

Query: Record COc1ccc(/C=C/C(=O)c2ccc(OCc3cn(CCNc4ccnc5cc(Cl)ccc45)nn3)cc2)cc1 : what is its IC50 with Plasmodium falciparum?
Response: 114 nM

Query: Record COc1ccc(C2CC(c3ccc(OCc4cn(CCNc5ccnc6cc(Cl)ccc56)nn4)c(OC)c3)=NN2C(C)=O)cc1 (stereo not drawn) : what is its IC50 with Plasmodium falciparum?
Response: 58.7 nM

Query: Record COc1cc(C(=O)/C=C/c2cc(OC)c(OC)c(OC)c2)ccc1OCc1cn(CCCNc2ccnc3cc(Cl)ccc23)nn1 : what is its IC50 with Plasmodium falciparum?
Response: 831 nM

Query: Record COc1ccc(C2CC(c3ccc(OCc4cn(CCNc5ccnc6cc(Cl)ccc56)nn4)cc3)=NN2C(C)=O)cc1 (stereo not drawn) : what is its IC50 with Plasmodium falciparum?
Response: 131 nM

---

# Test system: Plasmodium falciparum
# assay.protocol: Antiplasmodial activity against chloroquine-resistant Plasmodium falciparum W2 after 48 hrs by YOYO-1 dye-based flow cytometry
# Format: functional, organism-based
# conditions.used: W2, 48 h
reported.metric: IC50

Query: Form field: reported IC50 of O=C(/C=C/c1ccccc1)c1ccc(OCc2cn(CCCNc3ccnc4cc(Cl)ccc34)nn2)cc1
Response: > 10000 nM

Query: Form field: reported IC50 of COc1ccc(/C=C/C(=O)c2ccc(OCc3cn(CCCNc4ccnc5cc(Cl)ccc45)nn3)cc2)cc1
Response: > 10000 nM

Query: Form field: reported IC50 of O=C(/C=C/c1ccccc1)c1ccc(OCc2cn(CCNc3ccnc4cc(Cl)ccc34)nn2)cc1
Response: 172 nM

Query: Form field: reported IC50 of COc1ccc(/C=C/C(=O)c2ccc(OCc3cn(CCNc4ccnc5cc(Cl)ccc45)nn3)c(OC)c2)cc1OC
Response: 830 nM

Query: Form field: reported IC50 of COc1cc(C(=O)/C=C/c2cc(OC)c(OC)c(OC)c2)ccc1OCc1cn(CCNc2ccnc3cc(Cl)ccc23)nn1
Response: 355 nM

Query: Form field: reported IC50 of COc1ccc(/C=C/C(=O)c2ccc(OCc3cn(CCCNc4ccnc5cc(Cl)ccc45)nn3)cc2)cc1OC
Response: > 10000 nM

Query: Form field: reported IC50 of COc1ccc(/C=C/C(=O)c2ccc(OCc3cn(CCNc4ccnc5cc(Cl)ccc45)nn3)c(OC)c2)cc1
Response: 1910 nM

Query: Form field: reported IC50 of CC(=O)N1N=C(c2ccc(OCc3cn(CCCNc4ccnc5cc(Cl)ccc45)nn3)cc2)CC1c1ccccc1 (stereo not drawn)
Response: 3000 nM

---

# System: Plasmodium falciparum
# assay.protocol: Antiplasmodial activity against chloroquine-resistant Plasmodium falciparum W2 after 48 hrs by YOYO-1 dye-based flow cytometry
# Assay type: functional, organism-based
# conditions.used: W2, 48 h
reported.metric: IC50 (µM)
The reply should contain only the number, in µM.

Query: Record COc1cc(C(=O)/C=C/c2ccccc2)ccc1OCc1cn(CCCNc2ccnc3cc(Cl)ccc23)nn1 : what is its IC50 with Plasmodium falciparum?
Response: 6.96

Query: Record COc1cc(C2=NN(C(C)=O)C(c3cc(OC)c(OC)c(OC)c3)C2)ccc1OCc1cn(CCNc2ccnc3cc(Cl)ccc23)nn1 (centres undefined) : what is its IC50 with Plasmodium falciparum?
Response: 0.139

Query: Record COc1ccc(C2CC(c3ccc(OCc4cn(CCCNc5ccnc6cc(Cl)ccc56)nn4)cc3)=NN2C(C)=O)cc1 (centres undefined) : what is its IC50 with Plasmodium falciparum?
Response: 0.498

Query: Record COc1cc(C2CC(c3ccc(OCc4cn(CCNc5ccnc6cc(Cl)ccc56)nn4)cc3)=NN2C(C)=O)cc(OC)c1OC (centres undefined) : what is its IC50 with Plasmodium falciparum?
Response: 0.426
